Source listed as patent US12157738B2.

Molecular target: Ba/F3 EML4-ALK cells (Homo sapiens)
Construct: the other entry of the earlier key: EML4 (Q9HC35, Echinoderm microtubule-associated protein-like 4)
Sequence (Q9UM73 1058-1620 limits assumed): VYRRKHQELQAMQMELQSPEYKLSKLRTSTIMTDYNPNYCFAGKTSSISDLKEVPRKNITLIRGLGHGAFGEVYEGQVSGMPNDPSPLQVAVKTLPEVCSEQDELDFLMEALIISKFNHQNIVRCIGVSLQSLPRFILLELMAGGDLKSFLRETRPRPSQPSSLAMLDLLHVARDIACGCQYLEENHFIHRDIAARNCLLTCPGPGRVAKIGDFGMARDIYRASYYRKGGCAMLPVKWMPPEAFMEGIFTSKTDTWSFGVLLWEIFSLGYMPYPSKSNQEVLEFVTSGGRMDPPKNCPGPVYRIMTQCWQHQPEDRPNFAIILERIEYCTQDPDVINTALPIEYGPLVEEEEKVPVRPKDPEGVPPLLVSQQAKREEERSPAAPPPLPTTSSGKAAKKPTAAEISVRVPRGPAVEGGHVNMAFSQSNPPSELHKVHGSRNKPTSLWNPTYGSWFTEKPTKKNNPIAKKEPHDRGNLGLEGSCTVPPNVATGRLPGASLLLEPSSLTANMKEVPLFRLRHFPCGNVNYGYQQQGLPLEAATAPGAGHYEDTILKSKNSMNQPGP
Assay: Cell viability assay (CellTiter-Glo, 72 hr)
Experimental: Parental Ba/F3 cells were cultured with an additional 1 ng/mL recombinant mouse IL-3 (ProSpec). […] Cell viability was evaluated using the CellTiter-Glo® Luminescent Cell Viability Assay (Promega) following the manufacturer's standards. […] Anti-proliferative best fit IC50 values were calculated by Graphpad Prism 7 software.
pIC50: −log10 of the molar value.
readout-name: pIC50

                               smiles_input                     target_or_system  readout_name  value_observed
0  CN1Cc2nn(C)cc2-c2cnc(N)c(c2)N2CCC[C@@H]2c2cc(F)ccc2C1=O  Ba/F3 EML4-ALK cells (Homo sapiens)         pIC50            7.63
